System: LOC_OS01G39600-cb002;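 further: purified Escherichia coli-expressed rice kinase domain construct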
experimentalDetails: thermal shift delta Tm vs DMSO control; higher = stronger stabilization (binding)
conditionInfo: 12.5 µM; protein concentration 2 µM

| compound | unitAbbrev | thermal shift delta Tm |
| --- | --- | --- |
| OC(c1cc(-c2ccc(Cl)cc2)nc2ccccc12)C1CCCCN1 (centres undefined) | °C | -0.2 |
| CO[C@@H](C)Cn1c(=O)n(C)c2cnc3ccc(-c4cncc(C(C)(C)O)c4)cc3c21 | °C | 0.26 |
| CC(C)(C)c1cnc(CSc2cnc(NC(=O)C3CCNCC3)s2)o1 | °C | 0.92 |
| Nc1nc(N)c(N=O)c(OCC2CCCCC2)n1 | °C | -1.66 |
| Cc1ccccc1CN1C2=NCCN2C(=O)C2=C1CCN(Cc1ccccc1)C2 | °C | -3.24 |
| COc1cccc(-n2c(=O)[nH]c3cc(Cl)n(-c4ccc(-c5cccc(OC)c5O)cc4)c3c2=O)c1 | °C | -0.12 |
| CC#CC(=O)N1CCC[C@H]1c1nc(-c2ccc(C(=O)Nc3ccccn3)cc2)c2c(N)nccn12 | °C | 0.15 |
| COc1cc2ncnc(Nc3cccc(Cl)c3F)c2cc1OC(=O)N1CCN(C)C[C@H]1C | °C | -0.74 |
| O=C1c2c(O)cc(O)cc2OC(c2ccc(O)c(O)c2)C1O (centres undefined) [Taxifolin (Dihydroquercetin)] | °C | 0.19 |
| O=C(Nc1nccs1)C(c1cc(F)ccc1O)N1Cc2ccccc2C1=O (centres undefined) | °C | -0.23 |
| CCCS(=O)(=O)Nc1ccc(F)c(C(=O)c2c[nH]c3ncc(Cl)cc23)c1F | °C | 2.73 |
| C[C@]1(O)C[C@@H](c2nc(-c3ccc4ccc(-c5ccccc5)nc4c3)c3c(N)nccn32)C1 | °C | 1.68 |
| C[C@@H](Oc1ccc2[nH]nc(/C=C/c3cnn(CCO)c3)c2c1)c1c(Cl)cncc1Cl | °C | 9.68 |
| Cc1[nH]c(/C=C2\C(=O)Nc3ccc(S(=O)(=O)Cc4c(Cl)cccc4Cl)cc32)c(C)c1C(=O)N1CCC[C@@H]1CN1CCCC1 | °C | 3.39 |
| CC(C)S(=O)(=O)c1ccc2nccc(Nc3ccc4scnc4c3)c2c1 | °C | 0.91 |
| Oc1cccc(-c2nc(N3CCOCC3)c3oc4ncccc4c3n2)c1 | °C | 0.74 |
| CC1=C(C(=O)Nc2cc3cn[nH]c3cc2F)C(c2ccc(C(F)(F)F)cc2)CC(=O)N1 (centres undefined) | °C | -0.15 |
| CC(C)CC(=O)Nc1n[nH]c2c1CN(C(=O)C1CCN(C)CC1)C2(C)C | °C | -0.1 |
| Cn1c(Nc2ccc(C(F)(F)F)cc2)nc2cc(Oc3ccnc(-c4ncc(C(F)(F)F)[nH]4)c3)ccc21 | °C | 5.68 |
